Where these numbers come from: paper PMC3795721

# systemTested: AT4G31550 (Arabidopsis thaliana, UniProt Q9SV15 228-325)
# Sequence (Q9SV15 228-325): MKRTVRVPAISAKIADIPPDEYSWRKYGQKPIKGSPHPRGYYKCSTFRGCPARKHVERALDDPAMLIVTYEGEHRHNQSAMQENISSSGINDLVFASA
# assayMethodText: DPI-ELISA; DPI-ELISA, streptavidin 384-well plate, 1-2 pmol biotinylated dsDNA per well, crude native E. coli extract, anti-His detection; buffer as in Brand et al. [46],; high values mean tight binding
# settings: tags: C-terminal His (pET-DEST42); label: 5' biotin on forward strand; dsDNA, one strand shown
Task for the reader: assign each of the following sequences its reported binding signal.
Give bare numbers, in absorbance.

sequenceContent: AAAAAACATTGATAAAATCTCCAGGCAAAA
readoutLabel: binding signal
unitSymbol: absorbance
obsValue: 0.63
//
sequenceContent: AAAAAATCAACCATTATGGTATTACTAAAA
readoutLabel: binding signal
unitSymbol: absorbance
obsValue: 0.79
//
sequenceContent: AAAAAAATATTTGAGCTAGGTTATCAAAAA
readoutLabel: binding signal
unitSymbol: absorbance
obsValue: 0.57
//
sequenceContent: AAAAAAGGTTGGTACGTCGAGTTCTTAAAA
readoutLabel: binding signal
unitSymbol: absorbance
obsValue: 0.565
//
sequenceContent: AAAAAATGTTGTTGCTGTTGGTCCTAAAAA
readoutLabel: binding signal
unitSymbol: absorbance
obsValue: 0.695

Please give binding signal for each item listed below.
1. AAAAAACCGAGTGTTGCCAGTTGCAGAAAA
2. AAAAAAGGTGAGGAAGTTGGGTATGGAAAA
3. AAAAAATCACAATACCTTCTCGTCATAAAA
4. AAAAAAGGGTTTGTCGGGAATTGCCGAAAA
5. AAAAAATTCTAACTTAGCCTATGTCCAAAA
6. AAAAAATCGCGAACGTACGTCCGCGGAAAA
7. AAAAAAACTCAACTAGTGAACCACCAAAA

Given back:
0.655
0.64
0.58
0.58
0.695
0.51
0.625

Asked: Look up binding signal for this sequence: AAAAAATGGTCGATCCGCATGCAGTTAAAA
Given back: 0.52

====

# systemTested: AT4G31550 (Arabidopsis thaliana, UniProt Q9SV15 228-325)
# assayMethodText: DPI-ELISA; DPI-ELISA, streptavidin 384-well plate, 1-2 pmol biotinylated dsDNA per well, crude native E. coli extract, anti-His detection; buffer as in Brand et al. [46],; high values mean tight binding
# settings: tags: C-terminal His (pET-DEST42); label: 5' biotin on forward strand; dsDNA, one strand shown
readoutLabel: binding signal

The examples below pair each entry with its known result.
sequenceContent: AAAAAATTAGGACCATCCCCACTAGGAAAA
systemTested: AT4G31550 (Arabidopsis thaliana, UniProt Q9SV15 228-325)
binding signal: 0.69 absorbance
//
sequenceContent: AAAAAAACGATACGGTATCTAGAAAA
systemTested: AT4G31550 (Arabidopsis thaliana, UniProt Q9SV15 228-325)
binding signal: 0.525 absorbance
//
sequenceContent: AAAAAATTCACTTTTACCTTTGTGTTAAAA
systemTested: AT4G31550 (Arabidopsis thaliana, UniProt Q9SV15 228-325)
binding signal: 0.555 absorbance
//
sequenceContent: AAAAAACGTTGAACCTGGGCCTCAACAAAA
systemTested: AT4G31550 (Arabidopsis thaliana, UniProt Q9SV15 228-325)
binding signal: 1.39 absorbance
//
sequenceContent: AAAAAAGACACTCTAATTCCGTAGGCAAAA
systemTested: AT4G31550 (Arabidopsis thaliana, UniProt Q9SV15 228-325)
binding signal: 0.405 absorbance

Please give binding signal for each item listed below.
1. AAAAAATGCCGAGACCCCATGCCGGCAAAA
2. AAAAAACCTTACCTCATCCCTATCCCAAAA

Given back:
["0.51 absorbance", "0.605 absorbance"]
